Attribution: PubChem BioAssay AID1851

Test target: Cytochrome P450 2C19 (Homo sapiens) (UniProt P33261)
Sequence (P33261 whole entry, looked up): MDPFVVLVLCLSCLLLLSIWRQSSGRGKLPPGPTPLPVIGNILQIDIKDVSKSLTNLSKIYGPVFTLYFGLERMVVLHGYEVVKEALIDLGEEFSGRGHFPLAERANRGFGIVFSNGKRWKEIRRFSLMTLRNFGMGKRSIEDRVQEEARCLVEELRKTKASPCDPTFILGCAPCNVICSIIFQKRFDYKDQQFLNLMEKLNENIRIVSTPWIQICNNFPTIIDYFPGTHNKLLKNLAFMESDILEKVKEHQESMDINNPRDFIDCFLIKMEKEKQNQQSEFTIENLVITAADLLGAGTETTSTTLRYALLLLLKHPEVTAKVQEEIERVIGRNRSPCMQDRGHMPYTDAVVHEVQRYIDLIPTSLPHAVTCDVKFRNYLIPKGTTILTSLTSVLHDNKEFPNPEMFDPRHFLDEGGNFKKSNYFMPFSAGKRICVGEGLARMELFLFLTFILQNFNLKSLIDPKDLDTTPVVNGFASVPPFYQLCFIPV
Procedure summary: Cytochrome panel assay with activity outcomes
Test conditions: recombinant CYP, pro-luciferin dealkylation, luminescence, p450-cyp2c19; series mostly up to 57.1 µM
Hit rate of the full screen: of about 16,000 compounds, about 5,800 (36%) were called active. Another 23% or so got no clear call; they are omitted. The call rests on the fitted dose curve; in most records, active means well fitted curve in the direction sought with a large enough effect; inconclusive means small, poorly fitted or top-dose-only effect, or effect the other way; inactive means no such curve, though single readings can be large or run the other way. Some of the results follow.
Please state which outcome applies, choosing from label 1 (active), label 0 (inactive)

Which outcome was assigned to CCn1c(CSCc2ccc(C)cc2)nnc1SCC(=O)NCc1ccccc1 in this test?
label 1

Which outcome was assigned to O=C(O)CN1CCN(Cc2ccccc2)C1=O in this test?
label 1

Which outcome was assigned to O=C(O)c1ccccc1N/N=C\c1ccnc2ccccc12 in this test?
label 1

Which outcome was assigned to Cc1nc(SC(C(=O)c2ccccc2)c2ccccc2)n[nH]1 (stereo unspecified) in this test?
label 1

Which outcome was assigned to COC(=O)c1nc(NC(=O)c2ccccc2)n[nH]1 in this test?
label 0

Which outcome was assigned to COc1ccc(-n2c(=O)c(-c3cn(C)c4ccccc34)nc3cnc(OC)nc32)cc1 in this test?
label 0

Which outcome was assigned to Cc1cccc(CN2CCN(CC(=O)O)C2=O)c1 in this test?
label 0

Which outcome was assigned to O=C(CSCc1ccccc1)Nc1cccc(C(=O)Nc2ccccc2C(=O)O)c1 in this test?
label 1

Which outcome was assigned to CCn1c(CC(=O)Nc2ccc(C)cc2)nnc1SCC(=O)NCCc1ccccc1 in this test?
label 1

Which outcome was assigned to Cc1ccc(CN2CC34C=CC(O3)C(C(=O)NCc3ccc5c(c3)OCO5)C4C2=O)cc1 (stereo unspecified) in this test?
label 1

Which outcome was assigned to COc1ccc(O[C@H]2C=C[C@@H](c3ccccc3)O[C@H]2COC(=O)CC/C(C)=N\O[C@@H](C)CN2CCCc3nc(C)c(C)cc32)cc1 in this test?
label 1

---

Test target: Cytochrome P450 2C19 (Homo sapiens) (UniProt P33261)
Procedure summary: Cytochrome panel assay with activity outcomes
Test conditions: recombinant CYP, pro-luciferin dealkylation, luminescence, p450-cyp2c19; series mostly up to 57.1 µM
Among all 16,000 compounds or so, about 5,800 (36%) were called active. Inconclusive results (about 23%) are left out. Calls come from the whole dose curve; as a rule, active = well fitted curve in the direction sought with a large enough effect; inconclusive = small, poorly fitted or top-dose-only effect, or effect the other way; inactive = no such curve, though single readings can be large or run the other way. This is one part of the list.
Please state which outcome applies, choosing from True for active, False for inactive

Which outcome was assigned to O=C(N1CCOCC1)N1CCN(c2ccccc2)CC1 in this test?
True

Which outcome was assigned to CC1(C)CO[C@H](CC(=O)O)CN1 in this test?
True

Which outcome was assigned to O=C(c1ccc(Cl)cc1)N1CCN(C(=O)c2ccco2)CC1 in this test?
False

Which outcome was assigned to O=C1CS/C(=C\[N+](=O)[O-])N1c1ccc(OC(F)(F)F)cc1 in this test?
True

Which outcome was assigned to COc1ccc(C(=O)N2CCC3(CC2)CN(Cc2ccc(C#N)cc2)C3)cc1 in this test?
False

Which outcome was assigned to O=C(Nc1ccccc1)N1CCC2(CCNCC2)CC1 in this test?
False

Which outcome was assigned to CCC/C=C(\CCC)C(NC(=O)c1cccs1)c1ccc(C(F)(F)F)cc1 (stereo not drawn) in this test?
True

Which outcome was assigned to C=CCOc1cccc(CNn2cn[nH]c2=S)c1 in this test?
True

Which outcome was assigned to O=C(c1cc(O)c(O)c([N+](=O)[O-])c1)c1ccccc1F in this test?
False

Which outcome was assigned to CC1CC/C(=C\c2ccc3c(c2)OCO3)C(=O)/C1=C/c1ccc2c(c1)OCO2 (stereo not drawn) in this test?
True

Which outcome was assigned to O=C(Nc1ccccc1)N1CCCC2(CCNCC2)C1 in this test?
False

Which outcome was assigned to CC1CCCC(NC(=O)C2CCN(S(=O)(=O)N3CCOCC3)CC2)C1C (stereo not drawn) in this test?
False

Which outcome was assigned to O=C(CS(=O)c1cccc(C(F)(F)F)c1)Nc1ccccc1Cl (stereo not drawn) in this test?
True

Which outcome was assigned to CCCCSc1ccc2nc(-c3ccc(C#N)cc3)cn2c1 in this test?
True

Which outcome was assigned to CCC/C=C(\CCC)C(NC(=O)c1cccs1)c1ccc(C(=O)OC)cc1 (stereo not drawn) in this test?
True

Which outcome was assigned to Cc1ccc(-c2cccc(OC(=O)c3ccccc3F)c2)cc1 in this test?
True

Which outcome was assigned to NC(=O)C1=CN([C@@H]2O[C@@H](COP(=O)(O)OP(=O)(O)OC[C@@H]3O[C@H](n4cnc5c(N)ncnc54)[C@@H](OP(=O)(O)O)[C@@H]3O)[C@H](O)[C@@H]2O)C=CC1 in this test?
False

Which outcome was assigned to O=C(Nc1cccc(NC(=O)N2CCN(c3ccccc3)CC2)c1)N1CCN(c2ccccc2)CC1 in this test?
True

Which outcome was assigned to O=C(CS(=O)c1cccc(Cl)c1)Nc1ccccc1Cl (stereo not drawn) in this test?
True

Which outcome was assigned to CC(C)(C)NC(=O)CN(Cc1cccs1)C(=O)CCC(=O)Nc1nccs1 in this test?
True

Which outcome was assigned to Cc1cc(OC(=O)c2ccccc2Cl)cc(=O)n1C in this test?
False

Which outcome was assigned to CCOC(=O)CSc1cc(=O)n(C)c2cc(Cl)ccc12 in this test?
True

Which outcome was assigned to c1ccn(-c2ccc(N3CCOCC3)cc2)c1 in this test?
False

---

Test target: Cytochrome P450 2C19 (Homo sapiens)
Procedure summary: Cytochrome panel assay with activity outcomes
Test conditions: recombinant CYP, pro-luciferin dealkylation, luminescence, p450-cyp2c19; series mostly up to 57.1 µM
About 5,800 (36%) of roughly 16,000 compounds were called active. Roughly 23% stayed inconclusive and do not appear here. This is one part of the list.
Endpoint label: AC50

AC50 in this record for Cc1cc(Cn2cnc3c2C[C@@H](C(=O)O)N(C(=O)C(c2ccccc2)c2ccccc2)C3)ccc1N(C)C : 1580 nM (active)

AC50 in this record for O=c1c2ccccc2nc(SCc2ccccc2Cl)n1Cc1ccccc1 : 2820 nM (active)

AC50 in this record for COc1ccc(NC(=O)CSc2nc3ccccc3c(=O)n2CCC(=O)N2CCCCC2)cc1 : 794 nM (active)

AC50 in this record for CCCCCc1nc2c(C#N)c(-c3ccc(Cl)cc3)ccn2n1 : 7940 nM (active)

---

Test target: Cytochrome P450 2C19 (Homo sapiens) (UniProt P33261)
Procedure summary: Cytochrome panel assay with activity outcomes; on activity, negative = inhibition: on the % scale 0 is the no-effect control and ±100 the full control effect
Test conditions: recombinant CYP, pro-luciferin dealkylation, luminescence, p450-cyp2c19; series mostly up to 57.1 µM
Out of some 16,000 compounds screened, about 5,800 (36%) were called active. Another 23% or so got no clear call; they are omitted. Some of the results follow.
Endpoint label: activity, negative = inhibition

# lookup: CC(=O)OC[C@H]1O[C@@H](ON=C(C)C)[C@H](OC(C)=O)[C@@H](OC(C)=O)[C@H]1OC(C)=O on Cytochrome P450 2C19 (Homo sapiens) (UniProt P33261), activity, negative = inhibition = 32.2% [at 11.4 µM] (inactive)

# lookup: Cc1cc(N)c2cc(NC(=O)Nc3ccc4nc(C)cc(N)c4c3)ccc2n1 on Cytochrome P450 2C19 (Homo sapiens) (UniProt P33261), activity, negative = inhibition = -6.46% [at 11.4 µM] (inactive)

# lookup: O[C@H](CNc1ccccn1)c1ccccc1 on Cytochrome P450 2C19 (Homo sapiens) (UniProt P33261), activity, negative = inhibition = -7.78% [at 11.4 µM] (inactive)

# lookup: COc1ccc(OC)c(-c2cc(C(=O)O)c3cc4ccccc4cc3n2)c1 on Cytochrome P450 2C19 (Homo sapiens) (UniProt P33261), activity, negative = inhibition = 2.46% [at 11.4 µM] (inactive)

# lookup: CC(C)[C@H](NC(=O)OC(C)(C)C)[C@@H](O)CC(=O)C(C)(C)C on Cytochrome P450 2C19 (Homo sapiens) (UniProt P33261), activity, negative = inhibition = -18.4% [at 11.4 µM] (inactive)

# lookup: O=C(O)/C=C\C(=O)Nc1ccccn1 on Cytochrome P450 2C19 (Homo sapiens) (UniProt P33261), activity, negative = inhibition = 14.6% [at 11.4 µM] (inactive)

# lookup: CC(=O)OC[C@@H]1O[C@H](CCON=C(C)C)C=C[C@@H]1OC(C)=O on Cytochrome P450 2C19 (Homo sapiens) (UniProt P33261), activity, negative = inhibition = -20.6% [at 11.4 µM] (inactive)

# lookup: CO[C@@H]1COC(=O)[C@H]2CCCN2C(=O)[C@@H](C)COC(=O)[C@H](COCc2ccccc2)NC(=O)C/C=C\[C@H]1C on Cytochrome P450 2C19 (Homo sapiens) (UniProt P33261), activity, negative = inhibition = 12.9% [at 11.4 µM] (inactive)

# lookup: Cn1c(N)nc2c(nc(OCc3ccccc3)n2[C@@H]2O[C@H](CO)[C@@H](O)[C@@H]2O)c1=O on Cytochrome P450 2C19 (Homo sapiens) (UniProt P33261), activity, negative = inhibition = -3.29% [at 11.4 µM] (inactive)

# lookup: O=C1[C@@H]2[C@H]3[C@H](O)[C@H](O)C/C(=N/OCc4ccccc4)[C@H]3CC[C@H]2C(=O)N1c1ccc(F)cc1F on Cytochrome P450 2C19 (Homo sapiens) (UniProt P33261), activity, negative = inhibition = -4.38% [at 11.4 µM] (inactive)

# lookup: Cc1nc2ccccc2nc1-c1ccc(N=[N+]([O-])c2ccc(-c3nc4ccccc4nc3C)cc2)cc1 on Cytochrome P450 2C19 (Homo sapiens) (UniProt P33261), activity, negative = inhibition = 64.3% [at 11.4 µM] (inactive)

# lookup: Nc1nc(N)c(CCCCc2ccccc2)c(N)n1 on Cytochrome P450 2C19 (Homo sapiens) (UniProt P33261), activity, negative = inhibition = -22.9% [at 11.4 µM] (inactive)

# lookup: CO[C@H]1COC(=O)C/C=C\[C@H](C)COC(=O)[C@@H](OCc2ccccc2)/C=C\[C@@H]1C on Cytochrome P450 2C19 (Homo sapiens) (UniProt P33261), activity, negative = inhibition = -37% [at 11.4 µM] (inactive)

# lookup: CN(C)Cc1cc(C(C)(C)C)ccc1-c1ccc(C(C)(C)C)cc1CN(C)C on Cytochrome P450 2C19 (Homo sapiens) (UniProt P33261), activity, negative = inhibition = 39.4% [at 11.4 µM] (inactive)

# lookup: C[N+]1(CCC[N+]2(C)C[C@H]3[C@H](C2)[C@H]2C=C[C@@H]3CC2)CCOCC1 (some centres undefined) on Cytochrome P450 2C19 (Homo sapiens) (UniProt P33261), activity, negative = inhibition = -6.43% [at 11.4 µM] (inactive)

# lookup: CC(=O)OC[C@H]1O[C@@H](O/N=C(\C)CCN2CCc3nc(-c4ccccc4)c(-c4ccccc4)cc3C2)[C@H](OC(C)=O)[C@@H](OC(C)=O)[C@H]1OC(C)=O on Cytochrome P450 2C19 (Homo sapiens) (UniProt P33261), activity, negative = inhibition = 6.61% [at 11.4 µM] (inactive)

# lookup: CC(C)N1CCN(c2ccncc2S(=O)(=O)N2CCCCC2)CC1 on Cytochrome P450 2C19 (Homo sapiens) (UniProt P33261), activity, negative = inhibition = -23.9% [at 11.4 µM] (inactive)

# lookup: O=S(=O)(O)[C@@H](c1ccccc1)[C@@H](O)c1ccccc1 on Cytochrome P450 2C19 (Homo sapiens) (UniProt P33261), activity, negative = inhibition = 3.73% [at 11.4 µM] (inactive)

# lookup: C[N+](C)(N)Cc1csc(-c2ccc(Cl)cc2)n1 on Cytochrome P450 2C19 (Homo sapiens) (UniProt P33261), activity, negative = inhibition = 8.52% [at 11.4 µM] (inactive)
